System: HCT-15 colon
Assay: NCI-60 one-dose screen, 48 h (100 = growth as untreated, 0 = no growth, -100 = all killed)
Details: 10 µM unless noted
This is part of a sample that, as a whole, favours compounds with a hit. Of some 83,000 tested, about 20% had one in any assay. Active and inactive are the calls of the source. Rule for the calls: active = growth percent below 10; inactive = the rest.
Some molecules, each annotated with its measured growth.
endpoint-name: growth

>>> result("O=[N+]([O-])c1cc(S(=O)(=O)c2ccc(F)c([N+](=O)[O-])c2)ccc1F")
"36.5% (inactive)"
>>> result("O=C1C(Cl)=C(Nc2ccc(S(=O)(=O)c3ccc(NC4=C(Cl)C(=O)c5ccccc5C4=O)cc3)cc2)C(=O)c2ccccc21")
"0.496% (active)"
>>> result("CCCCC/C(=C\\c1ccccc1)C1OC(C)C(C)O1 (centres undefined)")
"109% (inactive)"
>>> result("COc1cccc(-c2nn(-c3ccccc3)cc2-c2ccnc(NCCNS(=O)(=O)c3ccccc3)c2)c1")
"20.3% (inactive)"
>>> result("CN(C)c1ccc(N=C2C=CC(=O)C=C2)cc1")
"97.7% (inactive)"
>>> result("COc1cc(NC(C)CN(CC(C)C)C(C)C)c2ncccc2c1 (centres undefined)")
"101% (inactive)"
>>> result("C=C1CC[C@@H](C(=O)OC)Cc2nc(C)ccc21")
"102% (inactive)"
>>> result("COC(c1ccccc1)(c1ccccc1)c1ccccc1")
"104% (inactive)"
>>> result("CCOC(=O)C/C(=C\\c1ccccc1)C(C)=O")
"106% (inactive)"
>>> result("COc1ccc(-c2cc(/C=C/C(=O)c3ccc(N)cc3)[nH]n2)cc1")
"17% (inactive)"
>>> result("C=C1C(=O)O[C@H]2[C@H]1CC/C(Cn1cc(-c3ccc(OC)cc3)nn1)=C\\CC[C@@]1(C)O[C@@H]21")
"-71.4% (active)"
>>> result("Brc1ccc(Cn2nnnc2-c2ccn(-c3ccccc3)n2)cc1")
"83% (inactive)"
>>> result("CC(=O)n1c(/C(C#N)=C/c2ccc(N(C)C)cc2)cc2ccccc21")
"23.9% (inactive)"
>>> result("CCCCCCCCNc1cccc2c1C(=O)c1ccccc1C2=O")
"107% (inactive)"
>>> result("Cc1cc(C=O)c(C)c2c1[nH]c1ccccc12")
"99.8% (inactive)"
>>> result("COc1cccc(-c2nn(-c3ccccc3)cc2-c2ccnc(NCCCNS(=O)(=O)c3cccc(F)c3)c2)c1")
"21.9% (inactive)"
>>> result("O=C(NCN1C(=O)c2cccc3cccc(c23)C1=O)N1CCC(Cc2ccccc2)CC1")
"104% (inactive)"
>>> result("Cc1ccc(S(=O)(=O)Nc2ccc(-c3cc(-c4cccc(F)c4)c(C#N)c(N)n3)cc2)cc1")
"-23.3% (active)"
>>> result("Nc1nc2c3ccncc3cc(-c3cccc(Cl)c3)c2c2cnccc12")
"28.5% (inactive)"
>>> result("Nc1c(C(=O)Nc2cccc3ccccc23)sc2nc3c(cc12)CCCC3")
"26.8% (inactive)"
>>> result("CCc1ccccc1NC(=O)c1sc2nc3c(cc2c1N)CCCC3")
"28.1% (inactive)"
>>> result("COC(=O)[C@]12CC[C@@H](C)[C@H](C)[C@@H]1C1=CC[C@@H]3[C@@]4(C)C=C(O)C(=O)C(C)=C4CC[C@@]3(C)[C@]1(C)CC2")
"25.2% (inactive)"
>>> result("COc1ccc(/C(=C\\c2ccc3c(c2)OCO3)C(=O)Nc2nc3ccccc3s2)cc1OC")
"90.1% (inactive)"
>>> result("COc1cccc(-c2nn(-c3ccccc3)cc2-c2ccnc(NCCNS(=O)(=O)c3ccc(C(F)(F)F)cc3)c2)c1")
"11.9% (inactive)"
>>> result("O=C1c2ccccc2NC(c2cn(-c3ccccc3)nc2-c2cccnc2)N1Cc1ccccc1 (centres undefined)")
"84.7% (inactive)"
>>> result("COc1ccc(-c2cc(-c3c(C)oc4cc5occc5c(OC)c4c3=O)nc(N)c2C#N)cc1OC")
"55.6% (inactive)"
>>> result("COc1cc2c(cc1-c1c(C)noc1C)ncc1nc(C3CCCCC3)n([C@@H](C)COC(F)F)c12")
"20.9% (inactive)"
>>> result("COC(=O)[C@]12CC[C@@H](C)[C@H](C)[C@@H]1C1=CC[C@@H]3[C@@]4(C)C(c5ncon5)=C[C@@](C)(CO)C4=CC[C@@]3(C)[C@]1(C)CC2")
"-64.9% (active)"
>>> result("C=C(C)[C@@H]1CC[C@]2(C(=O)N3CCN(CC)CC3)CC[C@]3(C)[C@H](CC[C@@H]4[C@@](C)(CCC(=O)N5CCN(CC)CC5)[C@H](C(=C)C)CC[C@]43C)[C@@H]12")
"9.11% (active)"
>>> result("COC1=C(Br)C(=O)C(OC)=C(Br)C1=O")
"96.1% (inactive)"
>>> result("O=C(/C(=C(\\C(=O)c1ccccc1)c1ccccc1)c1ccccc1)c1ccccc1")
"24% (inactive)"
>>> result("O=c1[nH]ncc(Br)c1Br")
"15.7% (inactive)"
>>> result("Cn1cc(-c2nc(-c3c[nH]c4ncccc34)cs2)c2ccccc21")
"64.3% (inactive)"
>>> result("N=c1ccc2nc3c(cc(N)c4ccccc43)oc-2c1")
"-69.9% (active)"
>>> result("Cn1c2c(c3ccc(Cl)cc31)-n1cccc1C2=O")
"83.5% (inactive)"
>>> result("CCC(c1ccc(OC)cc1)C(CC)c1ccc(O)c(CN2CCCCC2)c1 (centres undefined)")
"33.6% (inactive)"
>>> result("O=C(/C=C\\c1ccc2c(c1)OCO2)/C=C/c1ccc2c(c1)OCO2")
"11% (inactive)"
>>> result("O=C1CN(c2ccccc2)C(=O)C1C(=O)Nc1ccc(Cl)c(Cl)c1 (centres undefined)")
"27.9% [100 µM] (inactive)"
>>> result("C#CCn1c2c(c3ccccc31)C[C@]1(C)[C@H]3CC[C@@H]4[C@@H]5C(=CCC[C@H]5C(=C)C)CC[C@@]4(C)[C@]3(C)CC[C@H]1C2(C)C")
"104% (inactive)"
